Target: purified stripped human adult hemoglobin (Homo sapiens, UniProt P68871+P69905)
Construct: using purified stripped human adult hemoglobin as described previously; from tissue
Assay: Hemoglobin solution oxygen equilibrium studies (HEMOX-analyzer)
Format: biochemical
Details: Table IV; 0.5 mM effector, pH 7.2; n50 control 2.7
Measured Endpoint: n50 (Hill coefficient at 50% saturation)

{"columns": ["Molecule", "n50 (Hill coefficient at 50% saturation)"],
 "data": [
  ["Cc1cc(C)cc(NC(=O)Cc2ccc(OC3(C(=O)O)CCCC(C)C3)cc2)c1 (centres unmarked)", 2.5],
  ["CCC(Oc1ccc(CC(=O)Nc2cc(C)cc(C)c2)cc1)C(=O)O (racemic)", 2.7],
  ["Cc1cc(C)cc(NC(=O)Cc2ccc(OC3(C(=O)O)CCCC3)cc2)c1 [JP7, reference compound]", 2.4],
  ["Cc1cc(C)cc(NC(=O)Cc2ccc(OC(C)(C)C(=O)O)cc2)c1 [RSR13, reference compound]", 2.3],
  ["Cc1cc(C)cc(NC(=O)Cc2ccc(OC(C)C(=O)O)cc2)c1 (racemic)", 2.6],
  ["CCCC(C)(Oc1ccc(CC(=O)Nc2cc(C)cc(C)c2)cc1)C(=O)O (centres unmarked)", 2.7]
]}

For the record Cc1cc(C)cc(NC(=O)Cc2ccc(OC(F)C(=O)O)cc2)c1 (centres unmarked) , what value of n50 (Hill coefficient at 50% saturation) is listed for purified stripped human adult hemoglobin (Homo sapiens, UniProt P68871+P69905)?
2.5

Next up: Cc1cc(C)cc(NC(=O)Cc2ccc(OC3(C(=O)O)CCOC3C)cc2)c1 (centres unmarked)
2.4

* * *

Biological target: hemoglobin (Homo sapiens, UniProt P68871+P69905)
Construct: The whole blood samples were collected in heparinized tubes from healthy volunteers; from tissue; host or cells: human whole blood (heparinized) from healthy volunteers
Sequence (P69905 2-142 limits assumed): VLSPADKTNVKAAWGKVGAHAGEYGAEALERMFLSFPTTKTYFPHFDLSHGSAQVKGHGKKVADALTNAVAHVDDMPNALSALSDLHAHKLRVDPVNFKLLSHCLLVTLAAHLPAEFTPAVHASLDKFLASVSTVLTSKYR
Sequence (P68871 2-147 limits assumed): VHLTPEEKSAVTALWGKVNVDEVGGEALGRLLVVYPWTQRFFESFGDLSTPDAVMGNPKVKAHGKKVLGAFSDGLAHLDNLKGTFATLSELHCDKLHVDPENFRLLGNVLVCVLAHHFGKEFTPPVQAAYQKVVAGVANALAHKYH
Experiment: In vitro whole blood studies (multi-point tonometry and blood gas analysis)
Type: cell-based
Settings: Table III
Recorded Whole Blood Δp50 mm Hg for the following compounds
Give the quantity in mm Hg, number only.

{"columns": ["Compound", "Whole Blood Δp50 mm Hg / mm Hg"],
 "data": [
  ["Cc1cc(C)cc(NC(=O)Cc2ccc(OC3(C(=O)N[C@H](Cc4c[nH]c5ccccc45)C(=O)O)CCCC3)cc2)c1 [Compound 46]", 20],
  ["Cc1cc(C)cc(NC(=O)Cc2ccc(OC3(C(=O)N[C@@H](C(=O)O)C(C)C)CCCC3)cc2)c1 [Compound 42]", 27],
  ["CSCC[C@H](NC(=O)C1(Oc2ccc(CC(=O)Nc3cc(C)cc(C)c3)cc2)CCCC1)C(=O)O [Compound 52]", 21],
  ["Cc1cc(C)cc(NC(=O)Cc2ccc(OC(C)(C)C(=O)NCC(=O)O)cc2)c1 [KDD4-24]", 17],
  ["COC(=O)C(CCC(=O)O)NC(=O)C(C)(C)Oc1ccc(CC(=O)Nc2cc(C)cc(C)c2)cc1 (stereo not drawn) [Compound 30]", 26]
]}

Turning now to a further compound:
Name the recorded Whole Blood Δp50 mm Hg for CSCCC(NC(=O)C(C)(C)Oc1ccc(CC(=O)Nc2cc(C)cc(C)c2)cc1)C(=O)O (stereo not drawn) [Compound 34] .
11

* * *

Target: hemoglobin (Homo sapiens, UniProt P68871+P69905)
Construct: The whole blood samples were collected in heparinized tubes from healthy volunteers; from tissue; host or cells: human whole blood (heparinized) from healthy volunteers
Assay: In vitro whole blood studies (multi-point tonometry and blood gas analysis)
Format: cell-based
Conditions: Table II
Procedure: Structure-allosteric activity relationships were determined from the synthetic chiral effectors comparing the shift in the oxygen binding curve of Hb solutions using a Hemox-Analyzer. In vitro biological activity testing in the presence of plasma proteins was also performed on selected enantiomers and racemates (multi-point tonometry and blood gas analysis) to screen for candidates with potential clinical use. […]
Recorded Whole Blood Δp50 mm Hg for the following molecules
Give the quantity in mm Hg, number only.

Solved entries (count: 8):
{"columns": ["Molecule", "Measured Endpoint", "Measured"],
 "data": [
  ["Cc1cc(C)cc(NC(=O)Cc2ccc(OC3(C(=O)O)CCC(C)C3)cc2)c1 (stereo not drawn) [Compound 3]", "Whole Blood Δp50 mm Hg", 20.3],
  ["Cc1cc(C)cc(NC(=O)Cc2ccc(OC(C)(C(=O)O)c3ccccc3)cc2)c1 (stereo not drawn) [Compound 15]", "Whole Blood Δp50 mm Hg", 12],
  ["CCCC(C)(Oc1ccc(CC(=O)Nc2cc(C)cc(C)c2)cc1)C(=O)O (stereo not drawn) [Compound 6]", "Whole Blood Δp50 mm Hg", 25.6],
  ["Cc1cc(Cl)cc(NC(=O)Cc2ccc(OC3(C(=O)O)CCCC3C)cc2)c1 (stereo not drawn) [Compound 8]", "Whole Blood Δp50 mm Hg", 25],
  ["Cc1cc(C)cc(NC(=O)Cc2ccc(OC3(C(=O)O)CCOC3C)cc2)c1 (stereo not drawn) [Compound 2]", "Whole Blood Δp50 mm Hg", 15.2],
  ["Cc1cc(C)cc(NC(=O)Cc2ccc(OC3(C(=O)O)CCCC(C)C3)cc2)c1 (stereo not drawn) [Compound 11]", "Whole Blood Δp50 mm Hg", 16],
  ["Cc1cc(C)cc(NC(=O)Cc2ccc(OC(C(=O)O)c3ccccc3)cc2)c1 (stereo not drawn) [Compound 14]", "Whole Blood Δp50 mm Hg", 15],
  ["Cc1cc(C)cc(NC(=O)C2(C)CCc3cc(OC(C)(C)C(=O)O)c(C)c(C)c3O2)c1 (stereo not drawn) [Compound 17]", "Whole Blood Δp50 mm Hg", 1]
]}

Turning now to a further molecule:
For the record Cc1cc(C)cc(NC(=O)Cc2ccc(OC3(C(=O)O)CCOCC3)cc2)c1 [Compound 4] , what value of Whole Blood Δp50 mm Hg is listed for hemoglobin (Homo sapiens, UniProt P68871+P69905)?
17.8

* * *

Biological target: hemoglobin (Homo sapiens, UniProt P68871+P69905)
Construct: The whole blood samples were collected in heparinized tubes from healthy volunteers; from tissue; host or cells: human whole blood (heparinized) from healthy volunteers
Assay: In vitro whole blood studies (multi-point tonometry and blood gas analysis)
Format: cell-based
Settings: Table VI, 2.5 mM Hb, 5.0 mM effector
Rule for this label: criterion met means ΔP50 ± S.D. (P50 effector − P50control) is less than 20 mmHg; criterion not met means ΔP50 ± S.D. (P50 effector − P50control) is at least 20 mmHg.

{"columns": ["Molecule", "Group"],
 "data": [
  ["Cc1cc(C)cc(NC(=O)Cc2ccc(OC3(C(=O)O)CCCC3)cc2)c1 [JP7, reference compound]", "criterion not met"],
  ["Cc1cc(C)cc(NC(=O)Cc2ccc(OC3(C(=O)O)CCCC3C)cc2)c1 (racemic)", "criterion not met"],
  ["Cc1cc(C)cc(NC(=O)Cc2ccc(OC(C)(C)C(=O)O)cc2)c1 [RSR13, reference compound]", "criterion not met"]
]}

Please indicate whether the reported ΔP50 ± S.D. (P50 effector − P50control) of Cc1cc(C)cc(NC(=O)Cc2ccc(OC(C)C(=O)O)cc2)c1 (single isomer, unassigned; (-)) [(−) 18] is strictly below 20 mmHg.
criterion met

Next up: Cc1cc(C)cc(NC(=O)Cc2ccc(OC(C)C(=O)O)cc2)c1 (single isomer, unassigned; (+)) [(+) 18]
criterion not met

Next up: Cc1cc(C)cc(NC(=O)Cc2ccc(OC(C)C(=O)O)cc2)c1 (racemic) [Compound 18]
criterion met

* * *

Recorded P50e/P50c for the following compounds
Biological target: purified stripped human adult hemoglobin (Homo sapiens, UniProt P68871+P69905)
Construct: using purified stripped human adult hemoglobin as described previously; from tissue
Assay: Hemoglobin solution oxygen equilibrium studies (HEMOX-analyzer)
Type: biochemical
Details: Table V resolved enantiomers; ratio to P50 control with no effector (5.0 mmHg)
The answer should be a number; do not append a unit.

Solved entries (count: 3):
{"columns": ["Compound", "P50e/P50c"],
 "data": [
  ["Cc1cc(C)cc(NC(=O)Cc2ccc(OC(C)C(=O)O)cc2)c1 (single isomer, unassigned; (-)) [(−) 18]", 1.3],
  ["CCC(Oc1ccc(CC(=O)Nc2cc(C)cc(C)c2)cc1)C(=O)O (single isomer, unassigned; (-)) [(−) 20]", 2],
  ["CCC(Oc1ccc(CC(=O)Nc2cc(C)cc(C)c2)cc1)C(=O)O (single isomer, unassigned; (+)) [(+) 20]", 3.6]
]}

Name the recorded P50e/P50c for Cc1cc(C)cc(NC(=O)Cc2ccc(OC(C)C(=O)O)cc2)c1 (single isomer, unassigned; (+)) [(+) 18] .
2

* * *

Target: hemoglobin (Homo sapiens, UniProt P68871+P69905)
Construct: The whole blood samples were collected in heparinized tubes from healthy volunteers; from tissue; host or cells: human whole blood (heparinized) from healthy volunteers
Assay: In vitro whole blood studies (multi-point tonometry and blood gas analysis)
Assay type: cell-based
Details: Table II
Measured Endpoint: Whole Blood Δp50 mm Hg (mm Hg)
Give the quantity in mm Hg, number only.

Solved entries (count: 7):
{"columns": ["Compound", "Measured Endpoint", "Measured"],
 "data": [
  ["Cc1cc(Cl)cc(NC(=O)Cc2ccc(OC3(C(=O)O)CCC(C)C3)cc2)c1 (centres unmarked)", "Whole Blood Δp50 mm Hg", 15],
  ["CC1CCCC1(Oc1ccc(CC(=O)Nc2ccc3c(c2)CCC3)cc1)C(=O)O (centres unmarked)", "Whole Blood Δp50 mm Hg", 25.0],
  ["CC1CCC(Oc2ccc(CC(=O)Nc3ccc4c(c3)CCC4)cc2)(C(=O)O)C1 (centres unmarked)", "Whole Blood Δp50 mm Hg", 12.7],
  ["COCC(C)(Oc1ccc(CC(=O)Nc2cc(C)cc(C)c2)cc1)C(=O)O (centres unmarked)", "Whole Blood Δp50 mm Hg", 24],
  ["CCOC(C(=O)Nc1cc(C)cc(C)c1)c1ccc(OC(C)(C)C(=O)O)cc1 (centres unmarked)", "Whole Blood Δp50 mm Hg", 4],
  ["Cc1cc(C)cc(NC(=O)Cc2ccc(OC3(C(=O)O)CCCC3C)cc2)c1 (racemic)", "Whole Blood Δp50 mm Hg", 45.4],
  ["Cc1cc(C)cc(NC(=O)C(O)c2ccc(OC(C)(C)C(=O)O)cc2)c1 (centres unmarked)", "Whole Blood Δp50 mm Hg", 21]
]}

Turning now to a further compound:
Name the recorded Whole Blood Δp50 mm Hg for CCC(Oc1ccc(CC(=O)Nc2cc(C)cc(C)c2)cc1)(C(=O)O)c1ccccc1 (centres unmarked) .
12
